test system: Staphylococcus aureus; assay: Compound tested for the activity against Staphylococcus aureus strain 7; format: functional
Peptide text beside a SMILES is read from it.
MEASURED_PARAMETER: MIC
Please answer in the form of a number followed by its unit of measurement.

In: Endpoint output: MIC of CC(C)C[C@H](NC(=O)[C@H](CCCCN)NC(=O)[C@H](CC(C)C)NC(=O)[C@H](Cc1c[nH]c2ccccc12)NC(=O)[C@H](CCCCN)NC(=O)[C@H](CCCCN)NC(=O)[C@H](C)NC(=O)[C@H](Cc1c[nH]c2ccccc12)NC(=O)[C@H](CCCCN)NC(=O)[C@H](CCCCN)NC(=O)[C@H](Cc1c[nH]c2ccccc12)NC(=O)[C@H](CC(C)C)NC(=O)[C@@H](N)CCCCN)C(=O)N[C@@H](Cc1c[nH]c2ccccc12)C(=O)N[C@@H](CCCCN)C(=O)N[C@@H](C)C(=O)N[C@@H](Cc1c[nH]c2ccccc12)C(=O)O (H-KLWKKWAKKWLKLWKAW-OH) . Value?
Out: 25 µg/mL

###

system: Enterobacter cloacae; experiment: Compound tested for the antimicrobial activity against Enterobacter cloacae; format: functional
Peptide text beside a SMILES is read from it.
MEASURED_PARAMETER: MIC

// below: answered compounds
COMPOUND: CC(C)C[C@H](NC(=O)[C@H](CCCCN)NC(=O)[C@H](CC(C)C)NC(=O)[C@H](Cc1c[nH]c2ccccc12)NC(=O)[C@H](CCCCN)NC(=O)[C@H](CCCCN)NC(=O)[C@H](C)NC(=O)[C@H](Cc1c[nH]c2ccccc12)NC(=O)[C@H](CCCCN)NC(=O)[C@H](CCCCN)NC(=O)[C@H](Cc1c[nH]c2ccccc12)NC(=O)[C@H](CC(C)C)NC(=O)[C@@H](N)CCCCN)C(=O)N[C@@H](Cc1c[nH]c2ccccc12)C(=O)N[C@@H](CCCCN)C(=O)N[C@@H](C)C(=O)N[C@@H](Cc1c[nH]c2ccccc12)C(=O)O (H-KLWKKWAKKWLKLWKAW-OH)
MIC: < 0.39 µg/mL
--
COMPOUND: CC(C)C[C@H](NC(=O)[C@H](CCCCN)NC(=O)[C@H](CC(C)C)NC(=O)[C@H](Cc1c[nH]c2ccccc12)NC(=O)[C@H](CCCCN)NC(=O)[C@@H](N)CCCCN)C(=O)N[C@@H](Cc1c[nH]c2ccccc12)C(=O)N[C@@H](CCCCN)C(=O)N[C@@H](C)C(=O)N[C@@H](Cc1c[nH]c2ccccc12)C(=O)O (H-KKWLKLWKAW-OH)
MIC: < 0.39 µg/mL
--
COMPOUND: CC(C)C[C@H](NC(=O)[C@H](C)NC(=O)[C@H](CCCCN)NC(=O)[C@H](C)NC(=O)[C@H](CC(C)C)NC(=O)[C@H](CCCCN)NC(=O)[C@H](C)NC(=O)[C@H](CC(C)C)NC(=O)[C@H](CCCCN)NC(=O)[C@H](C)NC(=O)[C@H](CC(C)C)NC(=O)[C@H](CCCCN)NC(=O)[C@H](CCCCN)NC(=O)[C@H](C)NC(=O)[C@H](CC(C)C)NC(=O)[C@@H](N)CCCCN)C(=O)O (H-KLAKKLAKLAKLAKAL-OH)
MIC: 3.12 µg/mL

Now take the following compound into account.
In: Recorded MIC for CC(C)C[C@H](NC(=O)[C@H](CCCCN)NC(=O)[C@H](CC(C)C)NC(=O)[C@H](Cc1ccccc1)NC(=O)[C@H](CCCCN)NC(=O)[C@H](CCCCN)NC(=O)[C@H](C)NC(=O)[C@H](Cc1ccccc1)NC(=O)[C@H](CCCCN)NC(=O)[C@H](CCCCN)NC(=O)[C@H](Cc1ccccc1)NC(=O)[C@H](CC(C)C)NC(=O)[C@@H](N)CCCCN)C(=O)N[C@@H](Cc1ccccc1)C(=O)N[C@@H](CCCCN)C(=O)N[C@@H](C)C(=O)N[C@@H](Cc1c[nH]c2ccccc12)C(=O)O (H-KLFKKFAKKFLKLFKAW-OH) , please?
Out: 6.25 µg/mL

Values were extracted from ChEMBL document CHEMBL1126653.
